src = ChEMBL document CHEMBL1150586

System: HCT-8
Experiment: Cytotoxicity against human HCT8 cells after 5 days by MTT assay
Assay type: functional, cell-based
Details: HCT-8, 120 h
REPORTED PROPERTY: pIC50
Convention used: pIC50 is expressed as -log10 of the molar concentration.

Q: Read the entry O=C1C=CC[C@H]([C@H](O)[C@@H](c2ccccc2)c2c(O)cc3c(c2O)C(=O)C[C@@H](c2ccccc2)O3)O1 and write its reported pIC50.
Ans: 5.35
